tested on: P. falciparum 3D7 growth, pLDH absorbance; assay: blood-stage malaria parasite growth potency – strain 3D7, dose response (AID 2305)
Output met for records whose IC50 is lower than 800 nM, not met for records at or above 800 nM.

// known answers, use as guide
compound: COC(=O)c1ccc(-c2ccc(-c3cccnc3)cc2C)cc1
assignedClass: met

compound: COc1ccc(C2CCN(C#N)C2)cc1OC1CCCC1 (stereo not given)
assignedClass: met

compound: COc1cc(Cc2cnc(N)nc2N)cc(OCCn2ccccc2=O)c1OC
assignedClass: met

compound: COc1cccc(C(=O)NC(NC(=S)Nc2ccc(OC)cc2[N+](=O)[O-])C(Cl)(Cl)Cl)c1 (stereo not given)
assignedClass: met

Request: Item CC(C)(C)c1ccc(Cn2nc(C(=O)N3CCN(C(=O)C4CCCO4)CC3)c3ccccc32)cc1 (stereo not given) : IC50 beneath 800 nM, strictly?
Response: not met

Request: # TODO verify IC50 < 800 nM strictly for this compound: CCS(=O)(=O)Nc1ccc2[nH]c(O)c(C(=Nc3ccc(CN4CCCCC4)cc3)c3ccccc3)c2c1
Response: met

Request: Strictly below 800 nM: is that where IC50 of CC(C)Sc1nc2c(c(=O)n1Cc1ccco1)C1(CCCC1)Cc1ccccc1-2 sits?
Response: not met

Request: API: query returns whether the compound falls strictly under 800 nM in IC50. Query: CC(C)(CNCc1ccccc1)c1nc(-c2ccc(Cl)c(O)c2)c(-c2ccncc2)[nH]1
Response: met

Request: Does this compound meet the criterion IC50 < 800 nM? C=Cc1sc(CNCCCNc2cc(=O)c3ccccc3[nH]2)c(C)c1Br
Response: not met

---

test system: P. falciparum 3D7 growth, pLDH absorbance; assay: blood-stage malaria parasite growth potency – strain 3D7, dose response (AID 2305)
Would you mind sorting the entries by IC50 according to these classes? A: < 600 nM; B: ≥ 600 nM and < 800 nM; C: ≥ 800 nM

Below, 3 compounds whose answers are already recorded.
compound: CCOc1ccc(C(=O)Nc2cc(Cl)ccc2O)cc1Cl
assignedClass: B

compound: N#Cc1cccc(NC(=O)Nc2ccc3c(c2)CCN(C2CCC2)CC3)c1
assignedClass: C

compound: NCCCNc1nccc(N2CCc3ncnc(Nc4ccc(OCc5cccc(F)c5)c(Cl)c4)c3C2)n1
assignedClass: C

Request: Hey, which category is Cc1cnc(-c2ccc(NC(=O)c3coc4ccc(N5C[C@@H](C)N(C)[C@@H](C)C5)cc34)cc2)o1 in, do you know?
Response: B

Request: Band assignment needed for Cn1c(=N)n(CC(=O)OCc2ccc(OCc3ccccc3)cc2)c2ccccc21 please.
Response: A

Request: Tag the class for O=C(Nc1ccc(Oc2ccccc2)cc1)NC1CCC(CN2CCC(c3c[nH]c4ccccc34)CC2)CC1 (centres undefined)
Response: A

---

tested on: P. falciparum 3D7 growth, pLDH absorbance; assay: blood-stage malaria parasite growth potency – strain 3D7, dose response (AID 2305)
Give IC50 for every item shown.
Answers are plain numbers, in nM.

// worked examples, IC50 included
compound: COc1ccccc1NC(=O)CSc1nc2cccnc2n1-c1ccccc1OC
IC50, nM: 360
--
compound: Cc1nc(N)nc(N)c1-c1ccc(Br)c(Br)c1
IC50, nM: 50
--
compound: COc1cc(/C=C/C(=O)NCC(CCNc2cc(=O)c3ccccc3[nH]2)NCc2cc(Br)cc(Br)c2)cc(OC)c1 (centres undefined)
IC50, nM: 910
--
compound: COc1cc(F)c2ncc(Cl)c(CCN3CCC(NCc4ccc5c(c4)NC(=O)CO5)CC3)c2c1
IC50, nM: 230
--
compound: COc1cc(Nc2ncnc3cc(OC)c(OC)cc23)cc([N+](=O)[O-])c1
IC50, nM: 810
--
compound: FC(F)(F)c1ccc2nccc(NN=Cc3ccc(Cl)cc3)c2c1
IC50, nM: 790
--
compound: CC(C)[C@H](NC(=O)c1ccc(O)c(-c2ccc(Cl)c(Cl)c2)c1)C(=O)NCCN1CCCCC1
IC50, nM: 340
--
compound: CCNc1cc(C(=O)N[C@@H](Cc2ccc(F)c(F)c2)[C@H](O)CNC2CCCCC2)cc(N2CCCCS2(=O)=O)c1
IC50, nM: 120

Give me IC50 for each of these compounds, listed below.
1. CCOc1cc(C(=O)NC2CCN(Cc3ccccc3)CC2)ccc1-c1nc2cc(Cl)c(F)cc2[nH]1
2. CCCCc1ccc(NC(=O)Nc2cccc(CCNCc3ccccc3)c2)cc1
3. O=C(CCNc1ccnc(NCCc2ccccc2)n1)Nc1ccccc1
4. O=C(Nc1ccncc1)Nc1ccc2c(c1)CCN(C1CCC1)CC2
5. Cn1c(O)c(N=NC(=S)N2CCOCC2)c2ccccc21
6. O=C(C=Cc1ccc(Cl)c(Cl)c1)NCCCCCN1CCC(CCNC(=O)c2cccc3ccccc23)CC1

Response:
1: 800; 2: 880; 3: 840; 4: 1130; 5: 900; 6: 1590

Respectfully, I request IC50 for each entry included below.
1. Cc1nc(-c2nc(NCc3ccc4c(c3)OCO4)ncc2-c2ccsc2)sc1C
2. Cc1cccc(CN2CCCN(Cc3ccc(C(=O)Nc4ccc(Cl)cc4)cc3)CC2)c1
3. COc1ccc2nccc([C@@H](O)CN3CCC(NC(=O)c4ccc(Cl)c([N+](=O)[O-])c4)CC3)c2c1
4. COc1ccc2nccc(NN=Cc3ccccc3)c2c1
5. Cc1cccc2[nH]c(-c3ccc(-c4ccc(CN5CCCCC5)cc4)cc3)nc12
6. c1cc2nc(CCCCCc3nc4ccc(C5=N[C@@H]6CCCC[C@@H]6N5)cc4[nH]3)[nH]c2cc1C1=N[C@@H]2CCCC[C@@H]2N1

Response:
[100, 600, 950, 110, 590, 200]

Please state IC50 for every compound in the list that follows.
1. CCCc1cc(Cc2cnc(N)nc2N)cc(CCC)c1OCCCCC(=O)O
2. COc1ccc(OC)c([C@H](O)[C@@H](C)NCc2cc(Cl)ccc2O)c1
3. O=C(NCc1cccc(C(F)(F)F)c1)[C@@H]1CCCN1C(=O)c1ccc(O)c(-c2ccc(Cl)c(Cl)c2)c1

Response:
[200, 380, 790]

Provide IC50 values for the following items, in order.
1. O=C(/C=C/c1ccc(Cl)cc1)NCCCCCN1CCCC(C(=O)Nc2ccc(Cl)cc2)C1 (centres undefined)
2. NC1CCN(Cc2cccc(-c3ccc(-c4nc5ccc(F)cc5[nH]4)cc3)c2)C1 (centres undefined)
3. COc1ccc2nccc([C@@H](O)CN3CCC(NCc4ccc5c(c4)NC(=O)CS5)CC3)c2c1

Response:
1050
600
570

For every listed record, write down its IC50.
1. CCC(Cc1ccccc1)c1cc(O)c(Cc2ccc(-c3ccccc3)cc2)c(=O)o1 (centres undefined)
2. CC(=O)c1c(Nc2c(C)cc(C)cc2C)oc(C)cc1=O
3. O=C(c1cccc(-c2noc(C(F)(F)F)n2)c1)N1CCN(c2ccncc2)CC1
4. Brc1ccccc1CNc1ccnc(NCCn2ccnc2)n1
5. CCN(CC)c1ccc(C=CC(=O)NCCN2CCC(N(C)C3CCCCC3C)CC2)cc1 (centres undefined)
6. CC(C)(CNCCOc1ccc(Cl)cc1)c1nc(-c2ccc(Cl)c(O)c2)c(-c2ccnc(N)n2)[nH]1
7. N#Cc1ccc(OCCN(Cc2ccccc2C(F)(F)F)c2ccc(C#N)c(C(F)(F)F)c2)cc1
8. Cc1[nH]c2c(C)cccc2c1C1CCN(CCC2CCN(C(=O)/C=C/c3ccc(Cl)c(Cl)c3)CC2)CC1

Response:
1. 970
2. 480
3. 230
4. 900
5. 960
6. 830
7. 280
8. 640

Batch request: IC50 per item, same order as input.
1. C[C@@H]1CCC[C@H](C)N1C[C@@H](O)CNS(=O)(=O)c1cccc(C(F)(F)F)c1
2. COc1ccc2ncc(F)c([C@H](O)CN3CCC(NCc4ccc5c(c4)NC(=O)CS5)CC3)c2c1
3. COc1ccc(-c2nc3nc4ccccc4cc3[nH]2)c(OCC(O)CNC(C)C)c1 (centres undefined)
4. Cc1c(F)cc(C(=O)NC2CC2)cc1-c1ccc2c(cnn2S(=O)(=O)c2ccc(Cl)s2)c1
5. CSc1sc(NC(=O)Nc2cccc(C(F)(F)F)c2)cc1C#N

Response:
[690, 190, 690, 390, 910]
